Numbers sourced from the supplement of paper PMC12669032.

# System: Akkermansia muciniphila
# Test summary: growth AUC relative to DMSO control (median of replicates) (fraction); higher = more growth (less inhibition), active = hit call of the paper
# Measurement parameters: 20 µM; 24 h
Exercise: state measured growth AUC for each of the molecules provided.

Task item: State its growth AUC on Akkermansia muciniphila: `O=C(O)Cc1c(Cl)ccc(Cl)c1Cl`
Reply: 0.95 (inactive)

Task item: What growth AUC appears in the records for this molecule with Akkermansia muciniphila? `CCN(CC)C(=O)SCc1ccccc1Cl`
Reply: 0.931 (inactive)

Task item: Checklist item: growth AUC tested on Akkermansia muciniphila, entry Cc1ccc(C(C)NC(=O)[C@@H](NC(=O)OC(C)C)C(C)C)cc1 (some centres undefined) , value?
Reply: 1.06 (inactive)

Task item: Recorded growth AUC for CCOc1ccc(C2(C(=O)OC(C#N)c3cccc(Oc4ccccc4)c3)CC2(Cl)Cl)cc1 (centres undefined) with Akkermansia muciniphila, please?
Reply: 1.08 (inactive)

Task item: Fill in the recorded growth AUC for this molecule, with Akkermansia muciniphila as test system: `O=C(O)COc1ccc(Cl)c2cccnc12`
Reply: 0.981 (inactive)

Task item: Request - read-out growth AUC | tested on Akkermansia muciniphila | molecule `Oc1ccccc1`
Reply: 1.08 (inactive)

Task item: Recall the recorded growth AUC for `CCOc1ccc(NC(=O)OC(C)C)cc1OCC` with Akkermansia muciniphila and state it.
Reply: 1.08 (inactive)

Task item: Can you look up growth AUC on Akkermansia muciniphila for `CN(C)C(=O)Nc1ccc(Cl)c(Cl)c1` ?
Reply: 0.951 (inactive)

Task item: Provide value of growth AUC for this record tested with Akkermansia muciniphila: `COCCOc1ccccc1S(=O)(=O)NC(=O)Nc1nc(OC)nc(OC)n1`
Reply: 1.03 (inactive)

====

# Tested on: Coprococcus comes
# Test summary: growth AUC relative to DMSO control (median of replicates) (fraction); higher = more growth (less inhibition), active = hit call of the paper
# Measurement parameters: 20 µM; 24 h
Measured quantity: growth AUC
Lab note: jot the number down without any unit.

Task item: For the compound `Oc1ccc2nc(-c3cscn3)[nH]c2c1` , what growth AUC is on record?
Reply: 0.994

Task item: # get_value(readout='growth AUC', item= `CCCCOCCOC(=O)COc1nc(Cl)c(Cl)cc1Cl` )
Reply: 0.982

Task item: Entry `CC(C)COC(=O)COc1cc(Cl)c(Cl)cc1Cl` has what growth AUC?
Reply: 1

Task item: Look up growth AUC: CCC/C(=N\OCC(C)Oc1ccc(Cl)cc1)C1=C(O)CC(C2CCCSC2)CC1=O (stereo not given)
Reply: 0.979

Task item: Param item = CCCCC(CC)COC(=O)COc1cc(Cl)c(Cl)cc1Cl (stereo not given) ; retrieve measured growth AUC.
Reply: 0.976

Task item: # query: growth AUC of entry `CCCN(CCOc1c(Cl)cc(Cl)cc1Cl)C(N)=O`
Reply: 1

Task item: For the compound `O=c1cccc2n1CCn1c-2cccc1=O` , what growth AUC is on record?
Reply: 1.01

Task item: May I ask what growth AUC has been recorded for `CC(C)N(C(=O)CS(=O)(=O)[O-])c1ccccc1.[Na+]` ?
Reply: 0.982

Task item: Look up growth AUC for this compound: `CC1=C(C(=O)Nc2ccccc2)CCCO1`
Reply: 1.01

Task item: Which value of growth AUC has been reported for `Nc1nc2ccccc2[nH]1` in the records?
Reply: 0.971
